IC50: recorded values
- study_target: T1, recombinant mouse PCSK9 (mouse, UniProt Q80W65 35-694)
- T1 construct: also called mPCSK9; murine PCSK9
- T1 sequence (Q80W65 other isoform, or with tags, fused parts or gaps limits assumed): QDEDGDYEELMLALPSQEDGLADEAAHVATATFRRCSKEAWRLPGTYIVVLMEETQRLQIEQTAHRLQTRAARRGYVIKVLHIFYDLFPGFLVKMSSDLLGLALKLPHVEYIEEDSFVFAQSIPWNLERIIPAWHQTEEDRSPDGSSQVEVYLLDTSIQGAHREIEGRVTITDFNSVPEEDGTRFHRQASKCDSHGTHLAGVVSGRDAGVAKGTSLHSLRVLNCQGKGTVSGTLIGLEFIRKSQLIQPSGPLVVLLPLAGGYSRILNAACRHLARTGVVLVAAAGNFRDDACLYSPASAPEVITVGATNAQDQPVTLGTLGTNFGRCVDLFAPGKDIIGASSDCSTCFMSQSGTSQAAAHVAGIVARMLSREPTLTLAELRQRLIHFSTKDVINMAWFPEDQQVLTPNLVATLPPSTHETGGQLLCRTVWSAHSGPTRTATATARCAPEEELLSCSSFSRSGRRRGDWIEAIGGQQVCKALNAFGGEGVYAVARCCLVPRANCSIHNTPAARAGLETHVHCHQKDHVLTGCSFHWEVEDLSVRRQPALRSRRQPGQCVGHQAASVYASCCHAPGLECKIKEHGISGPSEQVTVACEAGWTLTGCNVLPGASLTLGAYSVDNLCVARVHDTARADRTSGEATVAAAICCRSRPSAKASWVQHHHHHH
- procedure_text: competition ELISA; antibody blocks biotinylated PCSK9 binding to immobilized recombinant LDLR extracellular domain
Your answer is read as nM, so omit the unit and give the number.

Known IC50 results, listed for orientation:
Reported IC50, binder anti-PCSK9 antagonist monoclonal antibody 7D4 (antibody, V domains shown, Murine full-length IgG from a hybridoma; also called 7D4.4 (subclone); ATCC PTA-8983) VH: EVKLVESEGGLVQPGSSMKLSCTASGFTFSDYYMAWVRQVPEKGLEWVANINYDGSNTSYLDSLKSRFIISRDNAKNILYLQMSSLKSEDTATYYCAREKFAAMDYWGQGTSVTVSS VL: DIVMTQSHKFMSTSFGDRVSITCKASQDVSNALAWYQQKPGHSPKLLIFSASYRYTGVPDRFTGSGSGTDFTFTISSVQAEDLAVYYCQQHYSTPWTFGGGTKLEIKR : ____
1

Reported IC50, binder anti-PCSK9 antagonist monoclonal antibody 5A10 (antibody, V domains shown, Murine full-length IgG from a hybridoma; Mouse precursor of L1L3; also called 5A10.B8 (subclone)) VH: QVQLQQPGAELVKPGASVKLSCKASGYTFTSYWMHWVKQRPGQGLEWIGEINPSNGRTNYNEKFKSKATLTVDKSSSTAYMQLSSLTSEDSAVYYCARERPLYAMDYWGQGTSVTVSS VL: DIVMTQSHKFMSTSVGDRVSITCKASQDVSTAVAWYQQKPGQSPKLLIYSASYRYTGVPDRFTGSGSGTDFTFTISSVQAEDLAVYYCQQRYSTPRTFGGGTKLEIKR : ____
3

Reported IC50, binder anti-PCSK9 antagonist monoclonal antibody 6F6 (antibody, V domains shown, Murine full-length IgG from a hybridoma; also called 6F6.G10.3 (subclone); ATCC PTA-8984) VH: EVQLQQSGPELVKPGASVKISCKASGYTFTDYYMNWVKQSHGKSLEWIGDINPNNGGTSYNQKFKGKATLTVDKSSSTAYMELRSLTSEDSAVYYCAGGGIYYRYDRNYFDYWGQGTTLTVSS VL: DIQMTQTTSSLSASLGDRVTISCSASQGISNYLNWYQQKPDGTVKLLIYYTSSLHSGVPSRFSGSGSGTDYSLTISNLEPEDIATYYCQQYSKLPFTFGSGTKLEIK : ____
10

Consider now this further binder.
Reported IC50, binder anti-PCSK9 antagonist monoclonal antibody 4A5 (antibody, V domains shown, Murine full-length IgG from a hybridoma; also called 4A5.G3 (subclone); ATCC PTA-8985) VH: EVQLQQSGPELVKPGASVKISCKASGYTFTDYYMNWVKQSHGKSLEWIGDINPNNGGTTYNQKFKGKATLTVDKSYSTAYMELRSLTSEDSAVYYCARWLLFAYWGQGTLVTVSA VL: DIVMTQSQKFMSTSVGDRVSVTCKASQNVGTNVAWYQQKPGQSPKALIYSASYRYSGVPDRFTGSGSGTDFTLTISNVLSEDLAEYFCQQFYSYPYTFGGGTKLEIKR : ____
3

Values compiled from patent US20100068199A1.
